All values here come from PubChem BioAssay (NCI).

tested on: UACC-257 melanoma; experiment: NCI tumour cell line growth inhibition, 48 h
Where a SMILES comes first, the peptide text is derived from it. [ ]: non-standard residue; d: D form. The star is where a group is joined. ξ: configuration not given here. ξF = NC(Cc1ccccc1)C(=O)O; Cbz = O=C(OCc1ccccc1)*; Aib = CC(C)(N)C(=O)O
OBSERVABLE: TGI

>  <COMPOUND>
COC(=O)/C=C/c1ccccc1N=[S@](C)(=O)c1ccc(C)cc1

>  <OBSERVABLE>
TGI

>  <REPORTED VALUE>
56.8 µM

$$$$
>  <COMPOUND>
Oc1ccc(/C=C\c2nnc(/C=C\c3ccc(O)c(O)c3)s2)cc1O

>  <OBSERVABLE>
TGI

>  <REPORTED VALUE>
35.7 µM

$$$$
>  <COMPOUND>
Cc1cc(-c2ncc(CC(=O)Nc3ccc(-c4cnccn4)cn3)cc2C)ccn1

>  <OBSERVABLE>
TGI

>  <REPORTED VALUE>
> 100 µM

$$$$
>  <COMPOUND>
COC1=CC(=O)c2ccccc2C1(CCC=C(C)C)C1=NC(C)(C)CO1 (centres undefined)

>  <OBSERVABLE>
TGI

>  <REPORTED VALUE>
> 100 µM

$$$$
>  <COMPOUND>
CC(C)(NC(=O)OCc1ccccc1)C(=O)NC(Cc1ccccc1)C(=O)O (centres undefined) (Cbz-[Aib]-[ξF]-OH)

>  <OBSERVABLE>
TGI

>  <REPORTED VALUE>
> 100 µM

$$$$

Give TGI for all compounds that follow.
1. O=P(O)(CCP(=O)(O)c1ccccc1)c1ccccc1
2. N=C(N)SCCON1C(=O)c2ccccc2C1=O
3. Cn1ccnc1Sc1ccc(/C=N/NC(=O)c2ccccc2O)cc1[N+](=O)[O-]
4. COc1ccc(C2=C(OC(=O)N(C)C)c3cccn3-c3cc(C(F)(F)F)ccc3S2)cc1
5. O=C(CCCn1cnc([N+](=O)[O-])n1)NCCn1ccnc1[N+](=O)[O-]
6. CC(C)(CO)CNc1cc(=O)[nH]c(N)n1

A:
["> 100 µM", "> 100 µM", "> 100 µM", "> 10 µM", "> 100 µM", "> 100 µM"]
